assay: qHTS assay to identify small molecule agonists of the estrogen related receptor (ERR) signaling pathway from Tox21 library (AID 1224849); details: ERR reporter cell line, ONE-Glo luciferase, 18 h; at 92.4 µM (top of the series) unless noted; note: % is set by controls: 0 for no effect and ±100 for the full control effect; nearly all actives have a fitted effect of over 15% in size
Active and inactive are the calls of the source. Calls come from the whole dose curve.
Outcomes: active, inactive

# compound, label
records = [
    ("O=C1c2ccccc2C(=O)C1c1ccc2cc(S(=O)(=O)O)cc(S(=O)(=O)O)c2n1", "active"),
    ("O=C(OCCCCCOC(=O)c1ccccc1)c1ccccc1", "inactive"),
    ("Cc1cc(C)c(C)c(O)c1", "inactive"),
    ("CCC(=O)O[C@]1(C(=O)COC)[C@@H](C)C[C@H]2[C@@H]3CCC4=CC(=O)C=C[C@]4(C)C3(F)[C@@H](O)C[C@@]21C (some centres not stated)", "inactive"),
    ("O=C(O)c1cccnc1Nc1cccc(C(F)(F)F)c1", "inactive"),
    ("CC/C=C\\CCO", "inactive"),
    ("CCC(C)C1N=C(C)C(C)S1 (configuration not stated)", "inactive"),
    ("CC1=CC(=C(c2ccc(N)cc2)c2ccc(N)cc2)C=CC1=N", "inactive"),
    ("N#CCCCC(C#N)CCC#N (configuration not stated)", "inactive"),
    ("CCCCCCCCCCCCSCCOCCO", "inactive"),
    ("CC(COc1ccccc1)NC(C)C(O)c1ccc(O)cc1 (configuration not stated)", "inactive"),
    ("O=C(c1ccco1)N1CCNCC1", "inactive"),
    ("CCCCCCOC(=O)c1ccccc1", "inactive"),
    ("Clc1cc(Cl)c2c(c1)N=C1CCCCCN1C2", "inactive"),
    ("O=C(Cl)c1ccc(F)c(Cl)c1", "inactive"),
    ("O=C(O)c1cc(C(=O)O)c(C(=O)O)cc1C(=O)O", "inactive"),
    ("CCC(=O)O[C@@H]1C[C@H]2CC[C@]1(C)C2(C)C", "inactive"),
    ("CCOc1cc(OCC)c(C(C)=O)cc1OCC", "inactive"),
    ("Cc1nc(C)c(C)nc1C", "inactive"),
    ("CCCN(C1CCN(C(=O)C2CCNCC2)CC1)[C@@H]1CCc2ccc(OC)cc2C1", "inactive"),
    ("C=C(C)C(=O)OCCCCCCCCCCOC(=O)C(=C)C", "inactive"),
    ("C[C@]12CCC(=O)C=C1[C@@H]1C[C@@H]1[C@H]1[C@@H]3[C@@H]4C[C@@H]4[C@@]4(CCC(=O)O4)[C@@]3(C)CC[C@@H]12", "inactive"),
    ("CC(=O)c1cccnc1", "inactive"),
    ("O=Cc1ccc(Cl)c([N+](=O)[O-])c1", "inactive"),
    ("CC(C)CCCCCCCOC(=O)c1ccc(C(=O)OCCCCCCCC(C)C)c(C(=O)OCCCCCCCC(C)C)c1", "inactive"),
    ("OCCc1ccncc1", "inactive"),
    ("Sc1nc(S)nc(S)n1", "inactive"),
    ("O=C(O)CNc1ccccc1", "inactive"),
    ("CC1(COc2ccc(CC3SC(=O)NC3=O)cc2)CCCCC1 (configuration not stated)", "inactive"),
    ("COc1ccc(/C(C)=C/C(=O)O)c(OC)c1", "inactive"),
    ("COc1ccc(/C=C/c2cc(OC)cc(=O)o2)cc1", "active"),
    ("NC(=O)c1ccccc1C(N)=O", "inactive"),
]

* * *

target: Cytochrome P450 1A2 (Homo sapiens); experiment: Cytochrome P450 Family 1 Subfamily A Member 2 (CYP1A2) small molecule antagonists: luciferase reporter qHTS assay (AID 1671199); settings: P450-Glo CYP1A2 enzyme, luciferin luminescence, 1 h; series mostly up to 115 µM; note: nearly all actives have a fitted effect of over 50% in size
Records with an inconclusive call do not appear. Activity calls are given as the source filed them. Calls follow the shape of the dose curve; as a rule, active = well fitted inhibition curve with a large enough effect in the repeat runs; inconclusive = weak or mixed curves; inactive = no such curve, though single readings can be large or run the other way.
Outcomes: active, inactive

# molecule, label
measured = [
    ("CC(=O)S[C@H](C(=O)N[C@H]1Cc2ccccc2[C@H]2CCC[C@@H](C(=O)O)N2C1=O)C(C)C", "inactive"),
    ("COC(=O)/C=C/C(C)=C\\C=C\\C(C)=C\\C=C\\C=C(C)\\C=C\\C=C(C)\\C=C\\C(=O)O", "inactive"),
    ("CCOCCn1c(N2CCCN(C)CC2)nc2ccccc21", "inactive"),
    ("O=C1CCCN1CCO", "active"),
    ("COc1ccnc2c1CCCCC2S(=O)c1nc2ccccc2[nH]1 (configuration not stated)", "active"),
    ("CC(C)(C)N", "inactive"),
    ("O=C(Nc1ccccc1)c1cc([N+](=O)[O-])ccc1Cl", "active"),
    ("CC(=O)Oc1cccc2c1C(=O)c1c(OC(C)=O)cc(C(=O)O)cc1C2=O", "inactive"),
    ("C=CC(O)CCCCC (configuration not stated)", "inactive"),
    ("c1ccc(CN(Cc2ccccc2)Cc2ccccc2)cc1", "active"),
    ("Cc1ccc(S(=O)(=O)NC(=O)NC2CCCC2)cc1", "inactive"),
    ("O=C1c2ccccc2C(=O)c2c1ccc(O)c2O", "active"),
]

* * *

Experiment: qHTS assay to identify small molecule agonists of the sonic hedgehog signaling (Shh) pathway - cell viability counter screen (AID 1259366); note: nearly all actives have a fitted effect of over 50% in size
Settings: NIH/3T3 Gli1-Luc viability, CellTiter-Fluor, 24 h; series mostly up to 92.4 µM
From the text: National Center for Advancing Translational Sciences [NCATS] NIH Chemical Genomics Center [NCGC] U.S. Environmental Protection Agency [EPA] National Institutes of Environmental Health Sciences [NIEHS] National Toxicology Program [NTP] U.S. Food and Drug Administration [FDA] The sonic hedgehog (Shh) pathway is essential for normal embryonic development. Dysregulation of the Shh pathway can cause severe developmental defects in organs. […]
Inconclusive results are not listed. Calls of active or inactive are those of the source. Calls follow the shape of the dose curve; as a rule, active = well fitted cell-killing curve with a large enough effect in the repeat runs; inconclusive = weak or mixed curves, or effect the other way; inactive = flat fitted curve, though single readings scatter.
Outcomes: active, inactive

# compound, label
records = [
    ("CC(=O)Oc1cccc2c1C(=O)c1c(OC(C)=O)cc(C(=O)O)cc1C2=O", "inactive"),
    ("CCCC1CCOC(C)S1 (stereo not given)", "inactive"),
    ("O=C(O)c1c2ccccc2cc2ccccc12", "inactive"),
    ("O=C(OCCCCCOC(=O)c1ccccc1)c1ccccc1", "inactive"),
    ("CCOC(OCC)OCC", "inactive"),
    ("CC(CCl)OC(C)CCl (stereo not given)", "inactive"),
    ("CCCCCCOC(=O)c1ccccc1", "inactive"),
    ("CCCOC(C)=O", "inactive"),
    ("OCCc1ccncc1", "inactive"),
    ("FC(F)(Cl)C(F)(Cl)Cl", "inactive"),
    ("O=C(OCCOCCOCCOC(=O)c1ccccc1)c1ccccc1", "inactive"),
    ("O=C(Nc1ccccc1)c1cc([N+](=O)[O-])ccc1Cl", "active"),
    ("Cc1c(-c2cccnc2)c2ccccc2n1CCCCC(=O)O", "inactive"),
    ("CC(C)(C(=O)O)c1ccc(C(O)CCCN2CCC(C(O)(c3ccccc3)c3ccccc3)CC2)cc1 (stereo not given)", "inactive"),
    ("CC1=C(C)C(=O)C(CCCCC#CCCCC#CCO)=C(C)C1=O", "inactive"),
    ("O=C(O)c1ccncc1", "inactive"),
    ("CCN(CCCCOC(=O)c1ccc(OC)c(OC)c1)C(C)Cc1ccc(OC)cc1 (stereo not given)", "inactive"),
    ("C=C(C)C(=O)OCCCCCCCCCCOC(=O)C(=C)C", "inactive"),
    ("CC(C)=CCCC(C)C=O (stereo not given)", "inactive"),
    ("Sc1nc(S)nc(S)n1", "inactive"),
    ("C[C@H](CN1CCCC1)C(=O)c1ccc(C(F)(F)F)cc1", "inactive"),
    ("O=Cc1ccc([N+](=O)[O-])cc1", "inactive"),
    ("N#Cc1ccc(CC(=O)c2cccc(C(F)(F)F)c2)cc1", "inactive"),
    ("CC(C)(C)c1ccc(CCC=O)cc1", "inactive"),
    ("CCCCCCCCCCCCCCCCN", "inactive"),
    ("CNc1ccccc1", "inactive"),
    ("CCCC(=O)OCCC(C)C", "inactive"),
    ("O=C(Nc1ccc2c(c1)Cc1ccccc1-2)C(F)(F)F", "inactive"),
    ("N#CCCCC(C#N)CCC#N (stereo not given)", "inactive"),
    ("C1CCN(CN2CCCCC2)CC1", "inactive"),
]

* * *

experiment: qHTS RealTime-Glo MT Cell Viability Assay in HEK293 cells - 40 hour (AID 1224874); conditions: RealTime-Glo luminescence; hits give low values; note: % is set by controls: 0 for no effect and ±100 for the full control effect; nearly all actives have a fitted effect of over 50% in size
Records with an inconclusive call do not appear.

# compound, max response (%)
rows = [
    ("Cc1c(-c2cccnc2)c2ccccc2n1CCCCC(=O)O", 2.18),
    ("c1ccc(CN(Cc2ccccc2)Cc2ccccc2)cc1", 4.19),
    ("O=[N+]([O-])c1ccc(Cl)cc1Cl", 2.44),
    ("Cc1cc(SC2=C(O)C[C@@](CCc3ccc(N)cc3)(C(C)C)OC2=O)c(C(C)(C)C)cc1CO", -1.78),
    ("CCc1cnc(C(=O)O)c(C(=O)O)c1", 5.23),
    ("O=C(OC1C[C@H]2CC[C@@H](C1)[N+]21CCCC1)C(O)(c1ccccc1)c1ccccc1 (stereo partly drawn)", 0.515),
    ("CCCCCCCCCCCCSCCOCCO", -17.3),
    ("CC(C)Oc1ccccc1O", 2.84),
    ("COC=O", 19.4),
    ("CC(C)NC(=O)c1ccccc1N", 0.226),
    ("CC(=O)OCC(=O)[C@@]1(O)CC[C@H]2[C@@H]3CCC4=CC(=O)C=C[C@]4(C)[C@@]3(F)[C@@H](O)C[C@@]21C", -21.2),
    ("CNc1ccccc1", 4.77),
    ("C[Si](C)(C)O[Si](C)(C)O[Si](C)(C)C", 7.13),
    ("CCCOC(C)=O", -1.95),
    ("O=C(O)CCc1nc2ccccc2[nH]1", 11),
    ("O=C(O)c1cc(C(=O)O)cc([N+](=O)[O-])c1", 8.3),
    ("CC(=O)c1cccnc1", -6.53),
    ("CCCCOC(=O)C(C)Oc1ccc(Oc2ccc(C(F)(F)F)cn2)cc1 (stereo not drawn)", -1.23),
    ("C=CC(O)CCCCC (stereo not drawn)", 0.0439),
    ("Cc1ccc(Cl)c(OCC(O)CNC(C)(C)C)c1 (stereo not drawn)", 1.75),
    ("C=C[Si]1(C)O[Si](C)(C=C)O[Si](C)(C=C)O[Si](C)(C=C)O1 (stereo not drawn)", -1.07),
    ("COC(=O)c1cc(Cl)ccc1[N+](=O)[O-]", -14.8),
    ("CC1(COc2ccc(CC3SC(=O)NC3=O)cc2)CCCCC1 (stereo not drawn)", 1.6),
    ("CCCCCCCCNC", 3.01),
    ("Cc1c(Nc2ncccc2C(=O)O)cccc1C(F)(F)F", 0.365),
    ("CCCC1CCOC(C)S1 (stereo not drawn)", 4.04),
    ("CCCCC(CC)COCCC#N (stereo not drawn)", 12.6),
    ("Cc1cc(N)n(-c2ccccc2)n1", -5.72),
]
